- ASSAY_COMMENT: Psilocin-d10 pharmacokinetics in female beagle dogs, oral gavage and intravenous (bolus)
- PROTOCOL_CONDITIONS: female, beagle, dog, plasma, iv, 0.2 mg/kg, Vss, female dog plasma, single IV bolus 0.20 mg/kg, animal 723F

| COMPOUND | Vd |
| --- | --- |
| [2H]C([2H])([2H])N(C([2H])([2H])[2H])C([2H])([2H])C([2H])([2H])c1c[nH]c2cccc(O)c12 [Compound I-3] | 3.79 L/kg |

* * *

- ASSAY_COMMENT: Psilocin-d10 pharmacokinetics in female beagle dogs, oral gavage and intravenous (bolus)
- PROTOCOL_CONDITIONS: female, beagle, dog, plasma, iv, 0.2 mg/kg, AUC0-t, female dog plasma, single IV bolus 0.20 mg/kg, Mean (N=3)
MEASURED_ENDPOINT: AUC(0-t) (ng·h/mL)

| MOL_SMILES | UNITS_TEXT | REPORTED |
| --- | --- | --- |
| [2H]C([2H])([2H])N(C([2H])([2H])[2H])C([2H])([2H])C([2H])([2H])c1c[nH]c2cccc(O)c12 | ng·h/mL | 77.8 |

Provenance of the data: patent US20250213527A1
